Measured pKd, listed per entry for reference.
target.or.test.system: T1, cynomolgus monkey transferrin receptor 1 (cTfR1) (cynomolgus monkey (Macaca fascicularis), UniProt Q5RDH6 89-760 (Pongo abelii entry), limits assumed)
T1 construct: Recombinant cynomolgus TfR1; also called cyTfR1; cyno TfR1
T1 chain: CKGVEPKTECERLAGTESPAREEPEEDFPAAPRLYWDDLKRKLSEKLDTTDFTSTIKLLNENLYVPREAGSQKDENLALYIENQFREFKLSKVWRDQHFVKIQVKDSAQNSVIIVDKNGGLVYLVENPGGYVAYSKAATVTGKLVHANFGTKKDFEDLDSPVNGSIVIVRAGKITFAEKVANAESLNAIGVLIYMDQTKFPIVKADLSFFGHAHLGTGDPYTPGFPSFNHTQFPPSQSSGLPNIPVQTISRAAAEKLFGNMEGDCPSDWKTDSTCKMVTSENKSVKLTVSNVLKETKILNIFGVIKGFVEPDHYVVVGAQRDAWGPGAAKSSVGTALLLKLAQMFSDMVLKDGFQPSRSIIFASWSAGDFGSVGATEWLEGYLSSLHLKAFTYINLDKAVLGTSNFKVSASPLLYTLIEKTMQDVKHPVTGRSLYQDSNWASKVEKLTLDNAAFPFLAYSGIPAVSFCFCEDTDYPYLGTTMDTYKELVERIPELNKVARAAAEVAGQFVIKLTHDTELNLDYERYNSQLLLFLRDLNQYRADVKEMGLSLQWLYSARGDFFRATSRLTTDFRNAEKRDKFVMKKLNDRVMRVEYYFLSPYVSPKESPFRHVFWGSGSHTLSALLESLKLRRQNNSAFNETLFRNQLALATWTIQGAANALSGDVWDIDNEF
experimental.details: average KD, antibody alone; method not given
pKd (log units): -log10 of the concentration in mol/L.

Recorded pKd, per entry:
1. 15G11 (control anti-TfR1 antibody) (antibody, V domains shown) VH: QVQLQQPGAELVKPGASVKLSCKASGYTFTSYWMHWVKQRPGQGLEWIGEINPTNGRTNYIEKFKSKATLTVDKSSSTAYMQLSSLTSEDSAVYYCARGTRAYHYWGQGTSVTVSS VL: DIQMTQSPASLSVSVGETVTITCRASDNLYSNLAWYQQKQGKSPQLLVYDATNLADGVPSRFSGSGSGTQYSLKINSLQSEDFGTYYCQHFWGTPLTFGAGTKLELK :: 9.00
2. 3-M12 mouse monoclonal anti-TfR1 antibody (antibody, V domains shown, Mouse mAb (IgG)) VH: DVQLQESGPGLVKPSQSLSLTCSVTGYSITSGYYWNWIRQFPGNKLEWMGYITFDGANNYNPSLKNRISITRDTSKNQFFLKLTSVTTEDTATYYCTRSSYDYDVLDYWGQGTTLTVSS VL: DIQMTQTTSSLSASLGDRVTISCRASQDISNFLNWYQQRPDGTVKLLIYYTSRLHSGVPSRFSGSGSGTDFSLTVSNLEQEDIATYFCQQGHTLPYTFGGGTKLEIK :: 8.29

# input for lookup
Measured pKd of 5-H12 mouse monoclonal anti-TfR1 antibody (antibody, V domains shown, Mouse mAb (IgG)) VH: QIQLQQSGPELVRPGASVKISCKASGYSFTDYCINWVNQRPGQGLEWIGWIYPGSGNTRYSERFKGKATLTVDTSSNTAYMQLSSLTSEDSAVYFCAREDYYPYHGMDYWGQGTSVTVSS VL: DIVLTQSPTSLAVSLGQRATISCRASESVDGYDNSFMHWYQQKPGQPPKLLIFRASNLESGIPARFSGSGSRTDFTLTINPVEAADVATYYCQQSSEDPWTFGGGTKLEIK : 7.92
